- study.target: Protein kinase C epsilon type (Homo sapiens) (UniProt Q02156)
- Sequence (whole entry): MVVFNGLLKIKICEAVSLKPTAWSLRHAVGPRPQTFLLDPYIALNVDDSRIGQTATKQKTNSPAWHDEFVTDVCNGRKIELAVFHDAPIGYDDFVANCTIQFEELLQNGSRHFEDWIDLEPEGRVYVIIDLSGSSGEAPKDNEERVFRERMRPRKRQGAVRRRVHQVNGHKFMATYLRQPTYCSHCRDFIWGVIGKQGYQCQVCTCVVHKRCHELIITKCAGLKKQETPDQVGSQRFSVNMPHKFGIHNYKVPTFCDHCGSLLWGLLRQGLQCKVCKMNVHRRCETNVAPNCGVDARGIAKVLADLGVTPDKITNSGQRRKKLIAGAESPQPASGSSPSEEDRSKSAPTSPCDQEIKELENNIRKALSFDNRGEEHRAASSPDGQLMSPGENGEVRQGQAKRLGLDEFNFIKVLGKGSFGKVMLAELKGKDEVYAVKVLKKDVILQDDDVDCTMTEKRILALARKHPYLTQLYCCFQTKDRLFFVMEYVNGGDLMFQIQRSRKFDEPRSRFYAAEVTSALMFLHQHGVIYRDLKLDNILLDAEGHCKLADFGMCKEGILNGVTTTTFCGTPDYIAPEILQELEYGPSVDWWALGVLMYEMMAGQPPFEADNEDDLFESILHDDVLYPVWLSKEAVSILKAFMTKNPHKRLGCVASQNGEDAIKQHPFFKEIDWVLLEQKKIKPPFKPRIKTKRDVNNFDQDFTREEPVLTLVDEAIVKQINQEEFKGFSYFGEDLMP
- condition.context: at 10 µM
The reader will find reported residual activity values listed item by item below.
reported.endpoint: residual activity (%)

> print(dat)
                               query.smiles  reported.endpoint  result.units  measured
1  CCn1cnc2c(Nc3cccc(Cl)c3)nc(N[C@@H]3CCCC[C@@H]3N)nc21  residual activity             %        80
2  O=c1[nH]c2ccccc2n1C1CCN(Cc2ccc(-c3nc4cc5[nH]cnc5cc4nc3-c3ccccc3)cc2)CC1  residual activity             %       100
3      CCc1nc(-c2ccc(OC)cc2)[nH]c1-c1ccncc1  residual activity             %       109

###

The reader will find reported residual activity values listed item by item below.
- study.target: RAC-alpha serine/threonine-protein kinase (Homo sapiens) (UniProt P31749)
- Sequence (P31749 whole entry): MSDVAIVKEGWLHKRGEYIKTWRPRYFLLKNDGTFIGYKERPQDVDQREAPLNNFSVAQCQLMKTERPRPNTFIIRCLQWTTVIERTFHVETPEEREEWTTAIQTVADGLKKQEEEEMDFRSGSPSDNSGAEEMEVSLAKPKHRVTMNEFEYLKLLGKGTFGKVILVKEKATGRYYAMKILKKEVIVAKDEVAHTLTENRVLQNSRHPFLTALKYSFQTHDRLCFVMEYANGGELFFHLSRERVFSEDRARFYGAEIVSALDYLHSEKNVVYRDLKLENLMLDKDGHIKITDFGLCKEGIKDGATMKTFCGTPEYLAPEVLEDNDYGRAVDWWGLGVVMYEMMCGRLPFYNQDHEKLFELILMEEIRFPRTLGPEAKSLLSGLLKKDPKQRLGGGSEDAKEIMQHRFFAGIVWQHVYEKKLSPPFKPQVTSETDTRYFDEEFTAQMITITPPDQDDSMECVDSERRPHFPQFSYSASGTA
- condition.context: at 1 µM

query.smiles	residual activity
CC(C)n1cnc2c(NCc3ccccc3)nc(NCCCO)nc21	107%
c1ccc(-c2n[nH]cc2-c2ccnc3ccccc23)nc1	96%
CN(C)CCCn1cc(C2=C(c3c[nH]c4ccccc34)C(=O)NC2=O)c2ccccc21	103%
N#C/C(=C\c1ccc(O)c(O)c1)C(=O)NCc1ccccc1	103%
C[C@@H](N)[C@H]1CC[C@H](C(=O)Nc2ccncc2)CC1	88%
O=C1Nc2cc(Br)ccc2/C1=C1/Nc2ccccc2/C1=N\O	114%
Cn1nc2c3c(cccc31)C(=O)c1ccccc1-2	111%
CC#CC(=O)Nc1cc2c(Nc3ccc(F)c(Cl)c3)ncnc2cn1	101%
NC(=O)c1ccc2[nH]c(-c3ccc(Oc4ccc(Cl)cc4)cc3)nc2c1	109%
O=c1cc(N2CCOCC2)oc2c1ccc1ccccc12	103%
CC(C)n1cnc2/c(=N/c3cccc(Cl)c3)nc(NCCO)[nH]c21	111%
Cc1cc(Nc2nc(-c3ccccc3)nc3ccccc23)n[nH]1	113%
O=C1NC(=O)c2c1c1c3ccccc3[nH]c1c1[nH]c3cc(Br)ccc3c21	103%
O=c1[nH]c2ccccc2n1C1CCN(Cc2ccc(-c3nc4cc5[nH]cnc5cc4nc3-c3ccccc3)cc2)CC1	98%
Nc1nc(Nc2ccc(S(N)(=O)=O)cc2)nn1C(=O)c1c(F)cccc1F	104%
COc1ccc(Cl)cc1NC(=O)Nc1cc(C)nc2ccccc12	95%
COc1ccc(CNC(=O)Nc2ncc([N+](=O)[O-])s2)cc1	116%
O=C(Nc1cccc(Nc2nccc(Nc3cccc(C(F)(F)F)c3)n2)c1)C1CC1	103%
Nc1ncnc2c1c(-c1ccc(Oc3ccccc3)cc1)cn2C1CCCC1	105%
COc1ccc2c(c[n+](C)c3c4cc5c(cc4ccc23)OCO5)c1OC	98%
CC(C)(C)c1nc2c3ccc(F)cc3c3c(=O)[nH]ccc3c2[nH]1	98%
O=C1NC(=O)c2cc(Nc3ccc(F)cc3)c(Nc3ccc(F)cc3)cc21	101%
O=C1c2ccccc2-c2nc3nnnn3nc21	103%
O=C(O)c1ccc2c3c1cccc3c(=O)n1c3ccccc3nc21	111%
COc1ccc(C(=O)Nc2sc3c(c2C(N)=O)CCCC3)cc1OC	103%
Nc1nc(Nc2ccc(S(N)(=O)=O)cc2)nn1C(=S)Nc1c(F)cccc1F	122%
Ic1cccc(CSc2nnc(-c3ccncc3)o2)c1	116%
Cn1cc(/C=C2\C(=O)Nc3ccc(S(N)(=O)=O)cc32)c2ccccc21	96%
Nc1ncnc2[nH]nc(Nc3ccc(F)cc3)c12	111%
Oc1ccc(-c2nc(-c3ccc(F)cc3)c(-c3ccncc3)[nH]2)cc1	113%
CO[C@H]1C[C@@H]2CC[C@@H](C)[C@@](O)(O2)C(=O)C(=O)N2CCCC[C@H]2C(=O)O[C@H]([C@H](C)C[C@@H]2CC[C@@H](O)[C@H](OC)C2)CC(=O)[C@H](C)/C=C(\C)[C@@H](O)[C@@H](OC)C(=O)[C@H](C)C[C@H](C)/C=C/C=C/C=C/1C	105%
O=C1Cc2c([nH]c3ccc([N+](=O)[O-])cc23)-c2ccccc2N1	104%
CCc1nc(-c2ccc(OC)cc2)[nH]c1-c1ccncc1	113%
COc1cc2ncnc(Nc3ccc(Oc4ccccc4)cc3)c2cc1OC	108%
CO[C@H]1[C@@H](OC)C[C@H](C)[C@@H](OC)C2=CC(=O)C=C(NC(=O)/C(C)=C/C=C/[C@H](OC)[C@@H](OC(N)=O)/C(C)=C/[C@@H]1C)C2=O	112%
O=C1NC(=O)/C(=C/c2ccc3c(c2)OC(F)(F)O3)S1	102%
O=C(c1ccccc1)c1ccc(N2CCOCC2)cc1O	96%
COC(=O)[C@@]1(O)C[C@H]2O[C@]1(C)n1c3ccccc3c3c4c(c5c6ccccc6n2c5c31)C(=O)NC4	101%

###

- study.target: Ephrin type-B receptor 2 (Homo sapiens) (UniProt P29323)
- Sequence (P29323 whole entry): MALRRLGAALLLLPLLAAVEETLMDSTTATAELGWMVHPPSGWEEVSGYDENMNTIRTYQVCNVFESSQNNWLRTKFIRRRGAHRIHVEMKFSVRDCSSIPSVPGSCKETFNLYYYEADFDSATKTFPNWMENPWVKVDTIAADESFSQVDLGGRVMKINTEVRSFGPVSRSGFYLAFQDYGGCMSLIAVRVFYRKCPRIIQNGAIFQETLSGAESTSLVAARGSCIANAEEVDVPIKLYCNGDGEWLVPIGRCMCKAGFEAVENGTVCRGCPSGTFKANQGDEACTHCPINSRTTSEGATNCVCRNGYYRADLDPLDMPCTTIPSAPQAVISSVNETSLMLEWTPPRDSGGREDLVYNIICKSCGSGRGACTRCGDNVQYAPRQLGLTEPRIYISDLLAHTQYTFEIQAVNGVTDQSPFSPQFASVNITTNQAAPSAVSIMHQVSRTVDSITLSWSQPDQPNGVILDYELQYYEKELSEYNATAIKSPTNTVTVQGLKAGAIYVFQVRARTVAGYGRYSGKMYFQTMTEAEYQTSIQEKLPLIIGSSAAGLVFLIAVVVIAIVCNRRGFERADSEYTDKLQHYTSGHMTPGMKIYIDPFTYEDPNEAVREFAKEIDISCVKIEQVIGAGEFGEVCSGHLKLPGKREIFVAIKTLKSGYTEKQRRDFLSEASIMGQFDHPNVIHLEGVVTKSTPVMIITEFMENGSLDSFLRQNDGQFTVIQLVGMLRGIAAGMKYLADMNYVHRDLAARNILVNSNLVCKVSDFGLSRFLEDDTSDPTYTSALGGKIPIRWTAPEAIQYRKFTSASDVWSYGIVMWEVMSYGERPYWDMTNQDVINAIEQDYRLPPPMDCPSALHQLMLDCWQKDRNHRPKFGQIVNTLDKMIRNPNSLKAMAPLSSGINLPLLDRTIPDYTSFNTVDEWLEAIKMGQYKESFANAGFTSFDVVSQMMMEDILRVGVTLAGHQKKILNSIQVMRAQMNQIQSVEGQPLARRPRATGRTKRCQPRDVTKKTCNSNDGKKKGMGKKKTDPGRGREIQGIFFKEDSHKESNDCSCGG
- condition.context: at 10 µM
The reader will find reported residual activity values listed item by item below.
reported.endpoint: residual activity

> print(dat)
                               query.smiles                              study.target  reported.endpoint  measured
1     COc1ccc2c(c1)/C(=C/c1cnc[nH]1)C(=O)N2  Ephrin type-B receptor 2 (Homo sapiens) (UniProt P29323)  residual activity       97%
2        CC(C)(C)c1cc(C=C(C#N)C#N)cc(Br)c1O  Ephrin type-B receptor 2 (Homo sapiens) (UniProt P29323)  residual activity      121%
3  COc1cc2ncnc(Nc3ccc(OCc4ccccc4)cc3)c2cc1OC  Ephrin type-B receptor 2 (Homo sapiens) (UniProt P29323)  residual activity      114%
4  CC(C)[C@H](CO)Nc1nc(Nc2cccc(Cl)c2)c2ncn(C(C)C)c2n1  Ephrin type-B receptor 2 (Homo sapiens) (UniProt P29323)  residual activity        3%
5          O=[N+]([O-])/C=C/c1ccc2c(c1)OCO2  Ephrin type-B receptor 2 (Homo sapiens) (UniProt P29323)  residual activity      124%

###

The reader will find reported residual activity values listed item by item below.
- study.target: Receptor-type tyrosine-protein kinase FLT3 (Homo sapiens)
- condition.context: at 10 µM
reported.endpoint: residual activity (%)

> print(dat)
                               query.smiles  reported.endpoint  result.units  measured
1  O=C1NC(=O)c2c1c1c3ccccc3n3c1c1c2c2ccccc2n1C1CCC3O1  residual activity             %         3
2  COc1cc2ncnc(Nc3ccc(OCc4ccccc4)cc3)c2cc1OC  residual activity             %        24
3        O=C1Nc2ccc3ncsc3c2/C1=C/c1c[nH]cn1  residual activity             %         0
4  COC(=O)[C@@]1(O)C[C@H]2O[C@]1(C)n1c3ccccc3c3c4c(c5c6ccccc6n2c5c31)C(=O)NC4  residual activity             %         1
5  CCn1cnc2c(Nc3cccc(Cl)c3)nc(N[C@@H]3CCCC[C@@H]3N)nc21  residual activity             %         1

###

- study.target: RAC-alpha serine/threonine-protein kinase (Homo sapiens)
- condition.context: at 1 µM
reported.endpoint: residual activity (%)

> print(dat)
                               query.smiles                              study.target  reported.endpoint  result.units  measured
1         COc1cc2ncnc(Nc3cccc(Cl)c3)c2cc1OC  RAC-alpha serine/threonine-protein kinase (Homo sapiens)  residual activity             %        86
2     CCC(=O)Nc1ccc2ncnc(Nc3cccc(Br)c3)c2c1  RAC-alpha serine/threonine-protein kinase (Homo sapiens)  residual activity             %        99
3  O=c1c2ccccc2[nH]c(=S)n1CCN1CCC(=C(c2ccc(F)cc2)c2ccc(F)cc2)CC1  RAC-alpha serine/threonine-protein kinase (Homo sapiens)  residual activity             %       112
